experimental_target: DRB01*15:01
stated_conditions: modification not given
reported_endpoint: IC50 (nM)

binder	units_text	measured_value
TLLALHRSYLTPGDS [Positive Control …]	nM	257
